Assay Details: Stability in buffer at various pH values (HPLC, unchanged test substance)
Assay type: physicochemical
Condition Context: buffer pH 4, 25° C., 4 h, acetonitrile/buffer 1:1
Where a name gives a salt, the structure may show the parent alone.
Parameter: % test substance after 4 h [F(t = 4 h) × 100/F(t = 0 h)]. Scope: all listed entries.
Measured Quantity: % test substance after 4 h [F(t = 4 h) × 100/F(t = 0 h)] (%)

[
  {
    "Molecule": "CC(C)[C@H](N)C(=O)OCCCCC(=O)N(C[C@H]1CN(c2ccc(N3CCOCC3=O)cc2)C(=O)O1)C(=O)c1ccc(Cl)s1 [Example 3, hydrochloride]",
    "Unit Abbreviation": "%",
    "Result": 100
  },
  {
    "Molecule": "NCC(=O)OCCCCC(=O)N(C[C@H]1CN(c2ccc(N3CCOCC3=O)cc2)C(=O)O1)C(=O)c1ccc(Cl)s1 [Example 2, hydrochloride]",
    "Unit Abbreviation": "%",
    "Result": 101
  },
  {
    "Molecule": "NCCCC[C@H](N)C(=O)NCCCCC(=O)N(C[C@H]1CN(c2ccc(N3CCOCC3=O)cc2)C(=O)O1)C(=O)c1ccc(Cl)s1 [Example 14, hydrochloride]",
    "Unit Abbreviation": "%",
    "Result": 100
  },
  {
    "Molecule": "NCC(=O)SCCCCC(=O)N(C[C@H]1CN(c2ccc(N3CCOCC3=O)cc2)C(=O)O1)C(=O)c1ccc(Cl)s1 [Example 5, hydrochloride]",
    "Unit Abbreviation": "%",
    "Result": 100
  },
  {
    "Molecule": "NCCCC[C@H](N)C(=O)SCCCCC(=O)N(C[C@H]1CN(c2ccc(N3CCOCC3=O)cc2)C(=O)O1)C(=O)c1ccc(Cl)s1 [Example 6, dihydrochloride]",
    "Unit Abbreviation": "%",
    "Result": 99
  },
  {
    "Molecule": "CC(C)[C@H](N)C(=O)SCCCC(=O)N(C[C@H]1CN(c2ccc(N3CCOCC3=O)cc2)C(=O)O1)C(=O)c1ccc(Cl)s1 [Example 8, hydrochloride]",
    "Unit Abbreviation": "%",
    "Result": 100
  },
  {
    "Molecule": "C[C@H](N)C(=O)SCCCCC(=O)N(C[C@H]1CN(c2ccc(N3CCOCC3=O)cc2)C(=O)O1)C(=O)c1ccc(Cl)s1 [Example 7, hydrochloride]",
    "Unit Abbreviation": "%",
    "Result": 100
  },
  {
    "Molecule": "N[C@@H](Cc1c[nH]cn1)C(=O)NCCCCC(=O)N(C[C@H]1CN(c2ccc(N3CCOCC3=O)cc2)C(=O)O1)C(=O)c1ccc(Cl)s1 [Example 12, hydrochloride]",
    "Unit Abbreviation": "%",
    "Result": 100
  },
  {
    "Molecule": "O=C(NCCCCC(=O)N(C[C@H]1CN(c2ccc(N3CCOCC3=O)cc2)C(=O)O1)C(=O)c1ccc(Cl)s1)[C@@H]1CCCN1 [Example 11, hydrochloride]",
    "Unit Abbreviation": "%",
    "Result": 101
  },
  {
    "Molecule": "CC(C)[C@H](N)C(=O)SCCCCC(=O)N(C[C@H]1CN(c2ccc(N3CCOCC3=O)cc2)C(=O)O1)C(=O)c1ccc(Cl)s1 [Example 4, hydrochloride]",
    "Unit Abbreviation": "%",
    "Result": 100
  }
]
